# SYSTEM NAME: T1, Human LRP6-Fc (R&D Systems), recombinant human LRP6 containing the complete extracellular domain (human, UniProt O75581 20-1370)
# T1 construct: Bought protein; also called hLRP6; Fc-antigen; not shown: Fc part of the bought fusion protein
# T1 sequence: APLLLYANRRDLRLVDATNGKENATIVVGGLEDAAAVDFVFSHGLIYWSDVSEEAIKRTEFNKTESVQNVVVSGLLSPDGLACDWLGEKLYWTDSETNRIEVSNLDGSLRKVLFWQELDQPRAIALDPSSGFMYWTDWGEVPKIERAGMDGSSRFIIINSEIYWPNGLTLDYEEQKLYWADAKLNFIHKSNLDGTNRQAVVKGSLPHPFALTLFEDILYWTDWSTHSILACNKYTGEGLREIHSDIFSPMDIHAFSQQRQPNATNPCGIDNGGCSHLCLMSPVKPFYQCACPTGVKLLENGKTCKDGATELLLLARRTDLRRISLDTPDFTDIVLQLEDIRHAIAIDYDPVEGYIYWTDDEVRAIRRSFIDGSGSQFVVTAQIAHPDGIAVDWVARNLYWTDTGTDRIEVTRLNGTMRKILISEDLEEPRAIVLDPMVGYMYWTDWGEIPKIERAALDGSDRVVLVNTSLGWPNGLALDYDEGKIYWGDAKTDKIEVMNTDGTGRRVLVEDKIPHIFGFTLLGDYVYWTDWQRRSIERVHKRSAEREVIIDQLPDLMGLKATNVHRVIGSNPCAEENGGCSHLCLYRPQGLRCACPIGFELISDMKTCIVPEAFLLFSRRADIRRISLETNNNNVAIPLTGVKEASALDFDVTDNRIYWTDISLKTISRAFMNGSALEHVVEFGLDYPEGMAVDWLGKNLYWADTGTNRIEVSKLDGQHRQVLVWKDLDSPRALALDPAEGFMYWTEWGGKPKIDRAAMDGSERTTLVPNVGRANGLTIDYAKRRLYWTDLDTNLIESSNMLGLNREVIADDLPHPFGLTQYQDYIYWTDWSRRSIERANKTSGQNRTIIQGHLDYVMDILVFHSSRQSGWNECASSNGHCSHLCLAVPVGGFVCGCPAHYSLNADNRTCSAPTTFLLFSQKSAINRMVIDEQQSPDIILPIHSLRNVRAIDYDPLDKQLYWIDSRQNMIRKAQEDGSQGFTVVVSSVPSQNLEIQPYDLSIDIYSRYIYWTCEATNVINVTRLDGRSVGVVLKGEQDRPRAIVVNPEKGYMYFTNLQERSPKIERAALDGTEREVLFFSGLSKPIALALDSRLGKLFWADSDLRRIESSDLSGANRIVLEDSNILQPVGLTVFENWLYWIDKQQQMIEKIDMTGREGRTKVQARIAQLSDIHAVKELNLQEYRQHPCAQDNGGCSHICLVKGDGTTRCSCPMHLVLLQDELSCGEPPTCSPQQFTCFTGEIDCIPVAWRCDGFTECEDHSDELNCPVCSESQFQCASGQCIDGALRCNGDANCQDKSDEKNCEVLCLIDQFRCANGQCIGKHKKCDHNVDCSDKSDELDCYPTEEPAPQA
# TEST DETAILS: SPR (BIAcore), mAb captured on anti-mouse chip, Fc-antigen injected, 1:1 model
Lab note: anything with kon at or over 40000 M⁻¹ s⁻¹ counts as t; the rest go in f.

kon >= 40000 M⁻¹ s⁻¹ for anti-LRP6 monoclonal antibody 1253.12 (antibody, V domains shown, Murine hybridoma mAb, protein G purified; also called VH18/VL18) VH: QVQLQQSGPELVMPGASVRISCKASGYTFTNYYLHWVKQRPGQGLEWIGWIYPGNVNTKYNEKFKGKASLTADKSSSTAYMQLSSLTSEDSAVYFCAREGLQYYFDYWAQGTTLTVSS VL: QIVLTQSPAIMSASPGEKVTISCSANSSVRYMFWYQQKPGSFPKPWIYRTSNLASGVPARFSGSGSGTSYSLTISSMEAEDVATYYCQQYHSYPWTFGGGTKLEI ?
f

kon >= 40000 M⁻¹ s⁻¹ for anti-LRP6 monoclonal antibody 498.3 (antibody, V domains shown, Murine hybridoma mAb, protein G purified; also called VH7/VL7) VH: DVKLVESGGGLVRLGGSLKLSCAASGFTFSTYYMSWVRQTPEKRLELVATINTNGGSTYYPDTLKGRFTISRDNAKNTLYLQMSSLRSEDTALYYCARQRNYGVAVDSWGQGTSVTVSS VL: DIVLTQSPATLSVTPGDSVSLSCRASQSISNNLHWYQQKSHESPRLLIKYASQSISGIPSRFSGSGSGTDFTLSINSVETEDFGMYFCQQTNNWPLTFGAGTKLER ?
t

kon >= 40000 M⁻¹ s⁻¹ for anti-LRP6 monoclonal antibody 421.1 (antibody, V domains shown, Murine hybridoma mAb, protein G purified; also called VH6/VL6) VH: QVQLQQSGPELVKPGASVRISCKASGYTFTTYYIHWLKQRPGQGLEWIGWIFPGNVNTKYNAKFKGKATLTADKSSSTAYMQLSSLTSEDSAVYFCAREELQYYFDYWGQGSTLTVSS VL: QIVLTQSPAIMSASPGEKVTISCSANSSVRFMFWYQQKPGSSPKPLIYRTSNLASGVPARFSGCGSGTSYSLTISSMEAEDAATYYCQQYHSYPWTFGGGTKLEI ?
f

kon >= 40000 M⁻¹ s⁻¹ for anti-LRP6 monoclonal antibody 923.3 (antibody, V domains shown, Murine hybridoma mAb, protein G purified; also called VH12/VL12) VH: DVKLVESGGGLVKVGGSLKLSCAASGFTFSSYYMSWVRQTPEKRLELVAAININGGSTYYPDTVKGRFTISRDNAKNTLYLQMSSLKSEDTAFYYCASELAGYGTPFAYWGQGTLVTVSA VL: DIVLTQSPATLSVTPGDSVSLSCRASQSISNNLHWYQQKSHESPRLLIKYASQSISGIPSRFSGSGSGTDFTLSINSVETEDFGMYFCQQSNNWPLTFGAGTKLEL ?
f

kon >= 40000 M⁻¹ s⁻¹ for anti-LRP6 monoclonal antibody 537.2 (antibody, V domains shown, Murine hybridoma mAb, protein G purified; also called VH8/VL8) VH: DVQLQESGPGLVKPSQSLSLTCSVTGYSITSGYYWNWIRQFPGDKLEWMGHINYDGRDNYNPSLKNRISITRDTSKNQFFLKLNSVTTEDTATYYCAREFGNFPYYFDYWGQGTTLTVSS VL: QIVLTQSPAIMSASPGEKVTISCSAYSSVRFMFWYQQKPGSSPKPLIYRTSNLASGVSARFSGSGSGTSYSLTISSMEAEDAATYYCQQYHSYPWTFGGGTKLEI ?
f

kon >= 40000 M⁻¹ s⁻¹ for anti-LRP6 monoclonal antibody 856.6 (antibody, V domains shown, Murine hybridoma mAb, protein G purified; also called VH11/VL11) VH: QVQLQQSGPELVKPGASVRISCKASGYTFTTYYIHWLKQRPGQGLEWIGWIFPGNVNTKYNAKFKGKATLTADKSSSTAYMQLSSLTSEDSAVYFCAREGLQYYFDYWGQGTTLTVSS VL: QIVLTQSPAIMSASPGEKVTISCSANSSVRFMFWYQQKPGSSPKPLIYRTSNLASGVPARFSGSGSGTSYSLTISSMEAEDAATYYCQQYHSYPWTFGGGTKLEI ?
t

kon >= 40000 M⁻¹ s⁻¹ for anti-LRP6 monoclonal antibody 606.4 (antibody, V domains shown, Murine hybridoma mAb, protein G purified; also called VH9/VL9) VH: DVKLVESGGGLVKVGGSLKLSCAASGFTFSSYYMSWVRQTPEKRLELVAVINSNGGSTYYSETVKGRFTISRDNAKNTLYLQMSSLKSEDTALYYCSRQPYYGNPFDYWGQGTTLTVSS VL: DIVLTQSPATLSVTPGDSVSLSCRASQSISNNLHWYQQKSHESPRLLIKYVSQSISGIPSRFSGSGSGTDFTLSINSVETEDFGMYFCQQSNNWPLTFGAGTKLEL ?
t

kon >= 40000 M⁻¹ s⁻¹ for anti-LRP6 monoclonal antibody 240.8 (antibody, V domains shown, Murine hybridoma mAb, protein G purified; also called VH4/VL4) VH: DVKLVESGGGLVKLGGSLKLSCAASGFTFSSYYMSWVRQTPEKRLELVAAINSNGGSTYYADTMKGRFTISRDNAKNTLYLQMISLKSEDTAFYYCASELAGYGTPFAYWGHGTLVTVSA VL: DIVLTQFPATLSVTPGDSVSLSCRASQSISSNLHWYQQTSHESPRLLIKYASQSISGIPSRFSGTGSGTDFTLSINSVETEDFGMYFCQQSNTWPLTFGAGTKLEL ?
f

kon >= 40000 M⁻¹ s⁻¹ for anti-LRP6 monoclonal antibody 1293.11 (antibody, V domains shown, Murine hybridoma mAb, protein G purified; also called VH20/VL20) VH: QVQLQQSGPELVKPGASVRISCKASGYTFTTYYIHWLKQRPGQGLEWIGWIFPGNVNTKYNAKFKGKATLTADKSSSTAYMQLSSLTSEDSAVYFCAREELQYYFDYWGQGSALTVSS VL: QIVLTQSPAIMSASPGEKVTISCSANSSVRFMFWYQQKPGSSPKPLIYRTSNLASGVPARFSGSGSGTSYSLTISSMEAEDAATYYCQQYHSYPWTFGGGTKLEI ?
f

kon >= 40000 M⁻¹ s⁻¹ for anti-LRP6 monoclonal antibody 413.1 (antibody, V domains shown, Murine hybridoma mAb, protein G purified; also called VH5/VL5) VH: EIQLQQSGPELVKPGASVKVSCKASGYAFTSYNMYWVKQSHGKGLEWIGYIDPYNGGTDSNQNFKGKATLTVDKSSSTAFMHLNSLTSEDSAVYYCARGGMGLRRDHFDYWGQGTSLTVSS VL: QIVLTQSPAIMSASPGEKVTISCSANSSVRYMFWYQQKPGSFPKPWTYRTSNLASGVPARFSGSGSGTSYSLTISSMEAEDVATYYCQQYHSYPWTFGGGTKLEI ?
f
